Molecular target: T1, human insulin receptor (HIR) (human, UniProt P06213-2 28-1370, limits assumed)
T1 construct: Also used for the WGA-purified recombinant human insulin receptor of the kinase assay
T1 sequence (P06213 other isoform, or with tags, fused parts or gaps limits assumed): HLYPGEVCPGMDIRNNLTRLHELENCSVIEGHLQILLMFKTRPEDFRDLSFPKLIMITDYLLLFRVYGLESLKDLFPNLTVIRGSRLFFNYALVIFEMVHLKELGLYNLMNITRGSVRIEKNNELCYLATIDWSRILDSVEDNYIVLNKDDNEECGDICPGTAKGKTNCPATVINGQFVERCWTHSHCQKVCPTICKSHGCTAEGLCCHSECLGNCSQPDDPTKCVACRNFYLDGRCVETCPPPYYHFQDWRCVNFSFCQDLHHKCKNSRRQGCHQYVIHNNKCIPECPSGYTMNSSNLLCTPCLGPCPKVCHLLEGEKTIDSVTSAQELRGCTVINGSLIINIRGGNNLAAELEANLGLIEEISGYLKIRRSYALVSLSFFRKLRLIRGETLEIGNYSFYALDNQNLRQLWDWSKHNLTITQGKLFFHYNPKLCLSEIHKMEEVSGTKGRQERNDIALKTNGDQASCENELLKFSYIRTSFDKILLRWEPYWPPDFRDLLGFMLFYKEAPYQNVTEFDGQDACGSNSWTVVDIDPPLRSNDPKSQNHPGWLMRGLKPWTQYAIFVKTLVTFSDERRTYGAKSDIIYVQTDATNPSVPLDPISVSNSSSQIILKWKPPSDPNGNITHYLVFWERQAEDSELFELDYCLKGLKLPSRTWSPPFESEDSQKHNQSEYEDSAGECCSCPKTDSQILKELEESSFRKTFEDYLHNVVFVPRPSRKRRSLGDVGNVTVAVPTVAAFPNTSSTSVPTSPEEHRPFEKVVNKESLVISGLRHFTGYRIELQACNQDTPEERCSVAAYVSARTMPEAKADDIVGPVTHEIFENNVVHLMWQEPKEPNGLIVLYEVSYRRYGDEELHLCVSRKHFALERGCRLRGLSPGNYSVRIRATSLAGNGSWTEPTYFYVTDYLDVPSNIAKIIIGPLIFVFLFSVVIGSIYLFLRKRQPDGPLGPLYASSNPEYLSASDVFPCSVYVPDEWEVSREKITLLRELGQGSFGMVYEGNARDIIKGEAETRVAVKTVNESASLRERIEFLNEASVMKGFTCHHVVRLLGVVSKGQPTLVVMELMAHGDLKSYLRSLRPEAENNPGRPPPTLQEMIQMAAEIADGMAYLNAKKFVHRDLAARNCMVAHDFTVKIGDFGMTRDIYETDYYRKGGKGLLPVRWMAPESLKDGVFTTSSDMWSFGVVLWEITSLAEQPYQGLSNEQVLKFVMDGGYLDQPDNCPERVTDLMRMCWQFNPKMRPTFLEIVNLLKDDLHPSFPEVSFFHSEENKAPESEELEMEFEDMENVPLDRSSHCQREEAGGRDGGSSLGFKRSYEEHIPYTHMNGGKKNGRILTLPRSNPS
Assay: 125I-insulin competition on purified HIR
No end group written: not given here.
Exercise: for every item that follows, state its recorded pKd.
Please treat pKd as minus the base-10 logarithm of the molar concentration.

Q) Field request: pKd | item: S444 (not fully specified (bridges); cysteine pairing not given here; also: C-C branched: chain 2 C-terminus bonded to Lys16 side chain) peptide 1: ESFYDWFERQLGGGGK peptide 2: VQCEVYGRGCPS
A) 6.72

Q) Likewise for S443 (not fully specified (bridges); cysteine pairing not given here; also: C-terminus of chain 2 linked to Lys16 of chain 1, bond at chain A 16 to a chain's C-terminus) peptide 1: ESFYDWFERQLGGGGK peptide 2: WVQCEVYGRGCPS ?
A) 6.77

Q) Can you handle S438 (not fully specified (bridges); cysteine pairing not given here; also: C-terminus of chain 2 linked to Lys16 of chain 1, bond at chain A 16 to a chain's C-terminus) peptide 1: ESFYDWFERQLGGGGK peptide 2: DQEWAWVQCEVYGRGCPS next?
A) 7.52

# credit: patent US20040023887A1
